Can you tell me IC50 for the items I'm about to list?
- tested_target: UniProt Q9NUW8
- assay_name: Inhibition of recombinant Tdp1 (unknown origin) using 5'-(5,6 FAM-aac gtc agg gtc ttc c-BHQ1)-3' as substrate measured every 55 secs for 8 mins by fluorimetric assay
Answers are plain numbers, in µM.

Below, 3 compounds whose answers are already recorded.
- test_smiles: "CC(=O)C1=C(O)C=C2Oc3c4c(c(C)c(O)c3[C@@]2(C)C1=O)O/C(=C\\c1ccccc1Br)C4=O"
  IC50, µM: 0.23
- test_smiles: "CC(=O)C1=C(O)C=C2Oc3c4c(c(C)c(O)c3[C@@]2(C)C1=O)O/C(=C\\c1cccs1)C4=O"
  IC50, µM: 0.9
- test_smiles: "COc1ccc(/C=C2\\Oc3c(C)c(O)c4c(c3C2=O)OC2=CC(O)=C(C(C)=O)C(=O)[C@@]24C)cc1OC"
  IC50, µM: 1.02

As a next step, examine the compound that follows.
Form: compound = "COc1ccc(/C=C2\Oc3c(C)c(O)c4c(c3C2=O)OC2=CC(O)=C(C(C)=O)C(=O)[C@@]24C)cc1" ; IC50 = 0.34

###

- tested_target: Tyrosyl-DNA phosphodiesterase 1 (Homo sapiens, UniProt Q9NUW8)
- Sequence (Q9NUW8 whole entry): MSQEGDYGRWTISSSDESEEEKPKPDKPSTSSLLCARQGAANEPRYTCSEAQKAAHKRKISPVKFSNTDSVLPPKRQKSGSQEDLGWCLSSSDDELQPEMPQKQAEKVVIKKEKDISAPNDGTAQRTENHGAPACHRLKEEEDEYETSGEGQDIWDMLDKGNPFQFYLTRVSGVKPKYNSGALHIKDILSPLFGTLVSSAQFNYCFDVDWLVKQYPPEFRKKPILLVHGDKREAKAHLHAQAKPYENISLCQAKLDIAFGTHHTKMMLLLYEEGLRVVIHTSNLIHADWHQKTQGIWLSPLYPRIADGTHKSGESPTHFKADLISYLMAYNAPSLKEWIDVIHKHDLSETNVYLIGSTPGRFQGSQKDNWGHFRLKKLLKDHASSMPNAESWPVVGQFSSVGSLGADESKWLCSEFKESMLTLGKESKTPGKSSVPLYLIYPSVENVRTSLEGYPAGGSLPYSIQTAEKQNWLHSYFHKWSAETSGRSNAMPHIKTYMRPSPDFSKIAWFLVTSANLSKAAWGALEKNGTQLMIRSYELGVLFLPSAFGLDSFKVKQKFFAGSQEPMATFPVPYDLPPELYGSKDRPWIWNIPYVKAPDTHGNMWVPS
- assay_name: Inhibition of recombinant Tdp1 (unknown origin) using 5'-(5,6 FAM-aac gtc agg gtc ttc c-BHQ1)-3' as substrate measured every 55 secs for 8 mins by fluorimetric assay
reported_property: pIC50
One number for each entry, as −log10 of the molar value.

- test_smiles: "CC(=O)C1=C(O)C=C2Oc3c4c(c(C)c(O)c3[C@@]2(C)C1=O)O/C(=C\\c1ccoc1)C4=O"
  reported_result: 5.17
- test_smiles: "CC(=O)C1=C(O)C=C2Oc3c4c(c(C)c(O)c3[C@@]2(C)C1=O)O/C(=C\\c1sccc1C)C4=O"
  reported_result: 6.20
- test_smiles: "CC(=O)C1=C(O)C=C2Oc3c4c(c(C)c(O)c3[C@@]2(C)C1=O)O/C(=C\\c1cc(C(C)(C)C)cc(C(C)(C)C)c1O)C4=O"
  reported_result: 7.60

Form: molecule = "CC(=O)C1=C(O)C=C2Oc3c4c(c(C)c(O)c3[C@@]2(C)C1=O)O/C(=C\c1ccccn1)C4=O" ; pIC50 = 6.07

###

- Tested on: Tdp1
- assay_name: Selectivity index, ratio of CC50 for HEK293 cells to IC50 for recombinant Tdp1 (unknown origin) using 5'-(5,6 FAM-aac gtc agg gtc ttc c-BHQ1)-3' as substrate
- Assay type: toxicity
- assay_context: human, HEK293 cells (CC50) and recombinant Tdp1 (IC50), probe 5'-(5,6 FAM-aac gtc agg gtc ttc c-BHQ1)-3'
Can you tell me selectivity ratio for the items I'm about to list?
Answers are plain numbers.

Below, 3 molecules whose answers are already recorded.
- test_smiles: "CC(=O)C1=C(O)C=C2Oc3c4c(c(C)c(O)c3[C@@]2(C)C1=O)O/C(=C\\c1cccc(Br)c1)C4=O"
  reported_result: 62.5
- test_smiles: "CC(=O)C1=C(O)C=C2Oc3c4c(c(C)c(O)c3[C@@]2(C)C1=O)O/C(=C\\c1ccc(Br)cc1)C4=O"
  reported_result: 97.3
- test_smiles: "CC(=O)C1=C(O)C=C2Oc3c4c(c(C)c(O)c3[C@@]2(C)C1=O)O/C(=C\\c1ccccc1Br)C4=O"
  reported_result: 69.1

For every item below, please supply its selectivity ratio.
1. CC(=O)C1=C(O)C=C2Oc3c4c(c(C)c(O)c3[C@@]2(C)C1=O)O/C(=C\c1ccc(Br)s1)C4=O
2. COc1ccc(/C=C2\Oc3c(C)c(O)c4c(c3C2=O)OC2=CC(O)=C(C(C)=O)C(=O)[C@@]24C)cc1
3. COc1ccc(/C=C2\Oc3c(C)c(O)c4c(c3C2=O)OC2=CC(O)=C(C(C)=O)C(=O)[C@@]24C)c(OC)c1OC

1: 249; 2: 46.5; 3: 58.8

###

Can you tell me selectivity ratio for the items I'm about to list?
- Test system: Tdp1
- assay_name: Selectivity index, ratio of CC50 for human A549 cells to IC50 for recombinant Tdp1 (unknown origin) using 5'-(5,6 FAM-aac gtc agg gtc ttc c-BHQ1)-3' as substrate
- Format: toxicity
- assay_context: A549 cells (CC50) and recombinant Tdp1 (IC50), probe 5'-(5,6 FAM-aac gtc agg gtc ttc c-BHQ1)-3'
Answers are plain numbers.

- test_smiles: "CC(=O)C1=C(O)C=C2Oc3c4c(c(C)c(O)c3[C@@]2(C)C1=O)O/C(=C\\c1ccccc1Br)C4=O"
  reported_result: 19.8

For every item below, please supply its selectivity ratio.
1. CC(=O)C1=C(O)C=C2Oc3c4c(c(C)c(O)c3[C@@]2(C)C1=O)O/C(=C\c1cc(C(C)(C)C)cc(C(C)(C)C)c1O)C4=O
2. CC(=O)C1=C(O)C=C2Oc3c4c(c(C)c(O)c3[C@@]2(C)C1=O)O/C(=C\c1ccc(Br)s1)C4=O
3. CC(=O)C1=C(O)C=C2Oc3c4c(c(C)c(O)c3[C@@]2(C)C1=O)O/C(=C\c1cccc(Br)c1)C4=O
4. CC(=O)C1=C(O)C=C2Oc3c4c(c(C)c(O)c3[C@@]2(C)C1=O)O/C(=C\c1ccc(Br)cc1)C4=O
5. COc1ccc(/C=C2\Oc3c(C)c(O)c4c(c3C2=O)OC2=CC(O)=C(C(C)=O)C(=O)[C@@]24C)cc1
6. COc1ccc(/C=C2\Oc3c(C)c(O)c4c(c3C2=O)OC2=CC(O)=C(C(C)=O)C(=O)[C@@]24C)c(OC)c1OC

1. 272
2. 138
3. 49.1
4. 66.7
5. 24.4
6. 13.5

###

- assay_name: Cytotoxicity against human A549 cells after 72 hrs by MTT assay
- Assay type: cell-based
reported_property: CC50 at 72 h (µM)
Give bare numbers, in µM.

For every item below, please supply its CC50 at 72 h.
1. COc1ccc(/C=C2\Oc3c(C)c(O)c4c(c3C2=O)OC2=CC(O)=C(C(C)=O)C(=O)[C@@]24C)c(OC)c1OC
2. CC(=O)C1=C(O)C=C2Oc3c4c(c(C)c(O)c3[C@@]2(C)C1=O)O/C(=C\c1cccc(Br)c1)C4=O
3. CC(=O)C1=C(O)C=C2Oc3c4c(c(C)c(O)c3[C@@]2(C)C1=O)O/C(=C\c1cc(C(C)(C)C)cc(C(C)(C)C)c1O)C4=O

[4.6, 11.4, 6.8]

###

- assay_name: Cytotoxicity against HEK293 cells after 72 hrs by MTT assay
- Type: cell-based
- assay_context: human
reported_property: CC50 at 72 h (µM)
Answers are plain numbers, in µM.

Below, 2 compounds whose answers are already recorded.
- test_smiles: "COc1ccc(/C=C2\\Oc3c(C)c(O)c4c(c3C2=O)OC2=CC(O)=C(C(C)=O)C(=O)[C@@]24C)c(OC)c1OC"
  reported_property: "CC50 at 72 h"
  reported_result: 20
- test_smiles: "CC(=O)C1=C(O)C=C2Oc3c4c(c(C)c(O)c3[C@@]2(C)C1=O)O/C(=C\\c1ccc(Br)s1)C4=O"
  reported_property: "CC50 at 72 h"
  reported_result: 15.7

For every item below, please supply its CC50 at 72 h.
1. CC(=O)C1=C(O)C=C2Oc3c4c(c(C)c(O)c3[C@@]2(C)C1=O)O/C(=C\c1ccc(Br)cc1)C4=O
2. CC(=O)C1=C(O)C=C2Oc3c4c(c(C)c(O)c3[C@@]2(C)C1=O)O/C(=C\c1ccccc1Br)C4=O

14.6
15.9

###

Can you tell me IC50 for the items I'm about to list?
- tested_target: Tyrosyl-DNA phosphodiesterase 1 (Homo sapiens, UniProt Q9NUW8)
- assay_name: Inhibition of recombinant Tdp1 (unknown origin) using 5'-(5,6 FAM-aac gtc agg gtc ttc c-BHQ1)-3' as substrate measured every 55 secs for 8 mins by fluorimetric assay
Give bare numbers, in nM.

- test_smiles: "CC(=O)C1=C(O)C=C2Oc3c4c(c(C)c(O)c3[C@@]2(C)C1=O)O/C(=C\\c1ccc(C)o1)C4=O"
  IC50 (nM): 160
- test_smiles: "CC(=O)C1=C(O)C=C2Oc3c4c(c(C)c(O)c3[C@@]2(C)C1=O)O/C(=C\\c1cccc(Br)c1)C4=O"
  IC50 (nM): 232
- test_smiles: "CC(=O)C1=C(O)C=C2Oc3c4c(c(C)c(O)c3[C@@]2(C)C1=O)O/C(=C\\c1cc(Br)cs1)C4=O"
  IC50 (nM): 600

Form: molecule = "CC(=O)C1=C(O)C=C2Oc3c4c(c(C)c(O)c3[C@@]2(C)C1=O)O/C(=C\c1ccccc1)C4=O" ; IC50 = 720

###

- assay_name: Cytotoxicity against human A549 cells after 72 hrs by MTT assay
- Assay type: cell-based
reported_property: CC50 at 72 h (µM)
Answers are plain numbers, in µM.

For every item below, please supply its CC50 at 72 h.
1. CC(=O)C1=C(O)C=C2Oc3c4c(c(C)c(O)c3[C@@]2(C)C1=O)O/C(=C\c1ccccc1Br)C4=O
2. CC(=O)C1=C(O)C=C2Oc3c4c(c(C)c(O)c3[C@@]2(C)C1=O)O/C(=C\c1ccc(Br)cc1)C4=O
3. CC(=O)C1=C(O)C=C2Oc3c4c(c(C)c(O)c3[C@@]2(C)C1=O)O/C(=C\c1ccc(Br)s1)C4=O
4. COc1ccc(/C=C2\Oc3c(C)c(O)c4c(c3C2=O)OC2=CC(O)=C(C(C)=O)C(=O)[C@@]24C)cc1

4.56
10
8.7
8.3
